The origin of these recorded values is ChEMBL document CHEMBL4513216.

Recorded INHIBITION values for a group of molecules are listed next.
Tested on: Plasmodium berghei
Assay: Screen against P. berghei liver stage (PbLuc), transformed with Luciferase, at 2uM
Format: functional, HepG2
Settings: tested at 2 uM
Among all 68,000 compounds or so, about 2,700 (4%) showed an effect of 50% or more. This excerpt belongs to a sample that is enriched for strong results.
Write the answer as a number in %, unit excluded.

Request: Write down the reported INHIBITION (system: Plasmodium berghei) of CC1CN(CC(=O)NC2CCOCC2)CCN1Cc1nccn1C (stereo not drawn)
Response: -0.99

Request: Write down the reported INHIBITION (system: Plasmodium berghei) of `Cc1cc(O)ccc1-c1cc(-c2cnn(C)c2C2CC2)c(C#N)c(N)n1`
Response: 7.06

Request: Write down the reported INHIBITION (system: Plasmodium berghei) of Cc1cnn(CC2CN(Cc3nc(-c4cccnc4)no3)CCO2)c1 (stereo not drawn)
Response: 12.75

Request: Write down the reported INHIBITION (system: Plasmodium berghei) of `Nc1ncccc1C(=O)NCc1cccc(Br)c1`
Response: -3.16

Request: Write down the reported INHIBITION (system: Plasmodium berghei) of O=C(c1cncc(NCC2COc3ccccc3C2)n1)N1CCCCC1 (stereo not drawn)
Response: 31.05

Request: Write down the reported INHIBITION (system: Plasmodium berghei) of CN(C(=O)c1ccc(C#N)cc1)c1nnc(C2CCOC2)s1 (stereo not drawn)
Response: -7.22
